experiment.summary: Primary qHTS for delayed death inhibitors of the malarial parasite plastid, 48 hour incubation
stated.conditions: P. falciparum luciferase growth in erythrocytes; series mostly up to 28.7 µM
About 18,000 (5.8%) of roughly 310,000 compounds were called active. Roughly 22% stayed inconclusive and do not appear here. Calls come from the whole dose curve; as a rule, active = well fitted inhibition curve with a large enough effect; inconclusive = small, poorly fitted or top-dose-only effect, or another doubt; inactive = no such curve, though single readings can be large or run the other way. The full list was thinned out, with actives kept by preference.
Choose the fitting class; nothing outside True = active, False = inactive is accepted.

Would you please look over these solved cases?
CCOC(=O)N1CCN(C(c2cccnc2)c2ccc3cccnc3c2O)CC1 (stereo not drawn) : True
Cc1nn(-c2ccccc2)c2sc(C(=O)N(Cc3ccco3)C(C)C(=O)NC(C)(C)C)cc12 (stereo not drawn) : True
CCc1ccc2c(c1)cc(CN(C(=S)Nc1ccccc1Cl)C1CC1)c1nnnn12 : True

Recorded call for `O=C(NCc1ccco1)c1nc(-c2ccccc2)n(-c2ccccc2)n1` ?
False

Recorded call for `Cc1ccc(OC(=O)c2cncc(Br)c2)c(C)c1` ?
False

Recorded call for N#Cc1ccc(OCC(=O)NC(=O)NC2CCS(=O)(=O)C2)cc1 (stereo not drawn) ?
False

====

experiment.summary: Primary qHTS for delayed death inhibitors of the malarial parasite plastid, 48 hour incubation
stated.conditions: P. falciparum luciferase growth in erythrocytes; series mostly up to 28.7 µM
Hit rate of the full screen: of about 310,000 compounds, about 18,000 (5.8%) were called active. About 22% were inconclusive and are not listed. Calls come from the whole dose curve; as a rule, active = well fitted inhibition curve with a large enough effect; inconclusive = small, poorly fitted or top-dose-only effect, or another doubt; inactive = no such curve, though single readings can be large or run the other way. The entries come from a sample that favours actives as a whole.
Choose the fitting class; nothing outside active, inactive is accepted.

Would you please look over these solved cases?
CC1(C)O[C@@H]2[C@H](O1)[C@@H](COS(=O)(=O)O)O[C@H]2n1cnc2c(=O)[nH]cnc21 : inactive
Cc1ccc2c(c1)N(CC(=O)N1CCCC(C)C1)C(=O)CO2 (stereo unspecified) : inactive
Cc1csc(NC(=O)CSc2nnc(-c3cccnc3)o2)n1 : inactive
CCc1cc(=O)oc2c(C)c(OCC(=O)NCCN3CCOCC3)ccc12 : inactive
Cc1ccccc1OCC(=O)N(Cc1cccc(F)c1)C1CCS(=O)(=O)C1 (stereo unspecified) : inactive
S=C(NCCCc1ccccc1)Nc1ccc(Br)cc1 : inactive
O=C(NC1CCN(Cc2ccccc2)CC1)c1c(F)cccc1F : inactive
O=C(Cc1ccccc1Cl)N1CCOCC1 : inactive
Cc1cccc(N(C)C(=O)c2cc(S(=O)(=O)N3CCCCC3)c[nH]2)c1 : inactive
O=C(c1cc(-c2cccs2)on1)N1CCCCC1 : inactive

Recorded call for `O=C(CSc1ncccn1)N1CCCC1` ?
inactive

====

experiment.summary: Primary qHTS for delayed death inhibitors of the malarial parasite plastid, 48 hour incubation; note: potency is the fitted concentration of half-maximal effect
stated.conditions: P. falciparum luciferase growth in erythrocytes; series mostly up to 28.7 µM
Among all 310,000 compounds or so, about 18,000 (5.8%) were called active. Another 22% or so got no clear call; they are omitted. Only a selection was taken, and actives are over-represented in it overall.
observation.type: Potency

CCOC(=O)c1ccc2[nH]c3c(c2c1)CCCC3NC=O (stereo unspecified) : inactive
Cc1ccccc1NC(=O)C1CCCN(C(=O)NCc2ccccc2)C1 (stereo unspecified) : inactive
COc1ccc(CS(=O)/C(Cl)=C(/Cl)C(=O)Nc2ccc(OC)nc2)cc1 (stereo unspecified) : 9.28 µM (active)
O=C(OCC(=O)N1CCCCCC1)c1cnc(Cl)c(Cl)c1 : inactive
O=C(NC1C2CC3CC(C2)CC1C3)c1ccc(N2CCNCC2)c([N+](=O)[O-])c1 (stereo unspecified) : inactive
COCCOC(=O)c1[nH]c2c(c1C)C(=O)CC(c1ccc(OC)cc1)C2 (stereo unspecified) : inactive
N#Cc1ccc(C2N=C(c3ccccc3)NO2)cc1 (stereo unspecified) : inactive
CCCOC(=O)c1[nH]c2c(c1C)C(=O)CC(c1cc(OC)c(OC)c(OC)c1)C2 (stereo unspecified) : 1.65 µM (active)

For the compound shown here, `O=C(Cc1ccc([N+](=O)[O-])cc1)Nc1ccc(C(=O)N2CCOCC2)cc1` , give the reported Potency.
inactive

For the compound shown here, `CCn1c(SCC(=O)N/N=C/C=C/c2ccccc2[N+](=O)[O-])nnc1-c1ccccc1` , give the reported Potency.
inactive

For the compound shown here, `CCN1/C(=C/C(=S)Nc2ccccc2)Sc2ccccc21` , give the reported Potency.
inactive
